Parameter: growth. Scope: all listed entries.
System: NCI-H322M lung
Experiment: NCI-60 one-dose screen, 48 h (100 = growth as untreated, 0 = no growth, -100 = all killed)
Conditions: 10 µM unless noted
The panel holds about 83,000 compounds, 20% with a hit somewhere; the sample as a whole holds those more often. Calls of active or inactive are those of the source. How the source made its calls: active means growth percent below 10; inactive means the rest.

Use these answered entries as a reference point.
molecule: CCC(c1ccc(O)cc1)C(CC)c1ccc(O)c(F)c1 (stereo not drawn)
growth: 91.1% (inactive)

molecule: COC(=S)SCN(CSC(=S)OC)c1ccc(Cl)cc1
growth: 76.1% (inactive)

Query string: Param item = `CCOC(=O)c1nc(Nc2cc(C)[nH]n2)c2ccccc2n1` ; retrieve measured growth.
Result string: 90.7% (inactive)

Query string: Report growth for `CCCCCCCCCCCCCC1=NCCN1CCO` please.
Result string: 93.5% (inactive)

Query string: Which growth is listed for `O=C(O)c1c([N+](=O)[O-])cnc2ccccc12` ?
Result string: 96.6% (inactive)

Query string: Need growth of `COc1ccc(CNc2nccnn2)cc1` , thanks.
Result string: 103% (inactive)

Query string: May I ask what growth has been recorded for `O=C(/C=C/c1cccc(Br)c1)c1ccccc1` ?
Result string: 97.7% (inactive)

Query string: Could you share which growth value was measured for `O=C(Nc1ccc(F)cc1)Nc1ccc(CCO)cc1` ?
Result string: 97.7% (inactive)
